Molecular target: LCAT (purified from human plasma) (Homo sapiens, UniProt P04180)
Construct: from tissue; host or cells: human plasma
Sequence (P04180 25-440): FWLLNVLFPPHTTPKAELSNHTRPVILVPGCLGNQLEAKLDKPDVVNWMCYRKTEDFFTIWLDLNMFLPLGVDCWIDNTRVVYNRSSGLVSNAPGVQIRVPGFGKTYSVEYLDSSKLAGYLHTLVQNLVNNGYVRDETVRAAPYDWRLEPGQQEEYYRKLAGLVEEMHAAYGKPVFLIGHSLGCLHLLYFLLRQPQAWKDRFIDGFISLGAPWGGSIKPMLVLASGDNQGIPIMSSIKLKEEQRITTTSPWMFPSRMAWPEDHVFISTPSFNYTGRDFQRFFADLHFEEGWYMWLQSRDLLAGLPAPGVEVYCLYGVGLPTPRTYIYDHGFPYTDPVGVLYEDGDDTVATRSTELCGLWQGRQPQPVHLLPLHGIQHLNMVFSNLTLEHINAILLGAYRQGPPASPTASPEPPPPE
Assay: LCAT activation assay
Type: biochemical
Conditions: LCAT activation as compared with native human ApoA-I (= 100%), equivalent masses
No end group written: not given here.
Give measured ACTIVITY (%) LCAT for each item. Keep answers brief.
# number only, unit % dropped from output

Q: Find the measured ACTIVITY (%) LCAT: item GVLELFENLLERLLDALQKKLK [peptide 145] , target or system LCAT (purified from human plasma) (Homo sapiens, UniProt P04180).
A: 100

Q: Find the measured ACTIVITY (%) LCAT: item PVLDLLRELLNELLEALKQKLK [compound 16] , target or system LCAT (purified from human plasma) (Homo sapiens, UniProt P04180).
A: 59

Q: Find the measured ACTIVITY (%) LCAT: item PVLDLFDNLLDRLLDLLNKKLK [compound 173] , target or system LCAT (purified from human plasma) (Homo sapiens, UniProt P04180).
A: 15

Q: Find the measured ACTIVITY (%) LCAT: item PVLDEFREKLNERLEALKQKLK [peptide 109, reference compound] , target or system LCAT (purified from human plasma) (Homo sapiens, UniProt P04180).
A: 0

Q: Find the measured ACTIVITY (%) LCAT: item PVLDLFERLLNELLEALQKKLK [compound 80] , target or system LCAT (purified from human plasma) (Homo sapiens, UniProt P04180).
A: 9

Q: Find the measured ACTIVITY (%) LCAT: item PVLELFDNLLDKLLDALQKKLR [compound 180] , target or system LCAT (purified from human plasma) (Homo sapiens, UniProt P04180).
A: 8

Q: Find the measured ACTIVITY (%) LCAT: item PVLELFLNLLERLGDALQKKLK [compound 172] , target or system LCAT (purified from human plasma) (Homo sapiens, UniProt P04180).
A: 16

Q: Find the measured ACTIVITY (%) LCAT: item PVLDAFRELGEALLQLKK [compound 226] , target or system LCAT (purified from human plasma) (Homo sapiens, UniProt P04180).
A: 1

###

Give measured ACTIVITY (%) LCAT for each item. Keep answers brief.
Target: LCAT (purified from human plasma) (Homo sapiens, UniProt P04180)
Construct: from tissue; host or cells: human plasma
Assay: LCAT activation assay
Format: biochemical
Details: LCAT activation as compared with native human ApoA-I (= 100%), equivalent masses
Description: The peptides synthesized as described in Section 6, supra, were analyzed in vitro for their ability to activate LCAT. […] “Specific activity” (i.e., units of activity (LCAT activation)/unit of mass) of the peptides can be calculated as the concentration of peptide that achieves maximum LCAT activation. […]
No end group written: not given here.
# number only, unit % dropped from output

Q: Entry PVLDLFRELLNELLEWLKQKLK [compound 3] : reported ACTIVITY (%) LCAT = ?
A: 98

Q: Entry Ac-AVLDLFRELLEELKQKLK-NH2 [compound 203] : reported ACTIVITY (%) LCAT = ?
A: 66

Q: Entry AVLDLFRELLNELLEALKQKLK [compound 29] : reported ACTIVITY (%) LCAT = ?
A: 39

Q: Entry GVLDLFRELLNELLEALKQKLK [peptide 18] : reported ACTIVITY (%) LCAT = ?
A: 58

Q: Entry PVLDLFRELLNEGLEALKQKLK [compound 8] : reported ACTIVITY (%) LCAT = ?
A: 83

Q: Entry PLLELLKELLQELLEALKQKLK [compound 36] : reported ACTIVITY (%) LCAT = ?
A: 31

Q: Entry PVLDLFRELLEELQKKLK [compound 220] : reported ACTIVITY (%) LCAT = ?
A: 22

Q: Entry PVLDLFRELLNELLQKLK [compound 209] : reported ACTIVITY (%) LCAT = ?
A: 47

Q: Entry Ac-DVLDLFRELLEELKQKLK-NH2 [compound 221] : reported ACTIVITY (%) LCAT = ?
A: 12

Q: Entry Ac-PVLDLFRELLEEGKQKLK-NH2 [compound 229] : reported ACTIVITY (%) LCAT = ?
A: 0

Q: Entry DWFKAFYDKVAEKFKEAF [peptide 243, reference compound] : reported ACTIVITY (%) LCAT = ?
A: 5

Q: Entry PVLDLFRELLNEELEALKQKLK [compound 98] : reported ACTIVITY (%) LCAT = ?
A: 2

Q: Entry PVLDLFREKLNELLEALKQKLK [compound 33] : reported ACTIVITY (%) LCAT = ?
A: 33

Q: Entry PVLELFDNLLERLLDALQKKLK [compound 179] : reported ACTIVITY (%) LCAT = ?
A: 8

Q: Entry PVLELFENLLERWLDALQKKLK [compound 181] : reported ACTIVITY (%) LCAT = ?
A: 8

Q: Entry PVLELFENGLERLLDALQKKLK [compound 167] : reported ACTIVITY (%) LCAT = ?
A: 18

Q: Entry PVFELFENLLERLLDALQKKLK [peptide 152] : reported ACTIVITY (%) LCAT = ?
A: 50
